Entries and their measured Neut IC50 subtype A follow.
Molecular target: RSV F protein of recombinant mKate-RSV, subtype A (strain A2) (Respiratory syncytial virus subtype A …, UniProt P03420 26-574)
Experiment: cell-based or functional assay
# output: number + unit

Some binders with known Neut IC50 subtype A results, for comparison:
ADI-14522 (antibody, V domains shown, full-length IgG (yeast-expressed); also called Antibody Number 82; Ab# 82) VH: EVQLVESGAEVKKPGDSVKVSCRASGYSFTGPFLHWVRQAPGQRLEHMGWINPRSGETKYAQSFLGRVTMTRDTSIRSATLELSSLRSDDTAVYYCARDLYSSGWLDNWGQGTLVTVSS VL: ETTLTQSPATLSVSPGERATLSCRASQGLSSNLAWYQHKPGQAPRLLVYGVATRATGVPARFSGSGSGTEFTLTISSLQSDDFALYYCHQYNDWPYTFGQGTKLEIK: 3.53 µg/mL
ADI-14496 (antibody, V domains shown) VH: QVQLVQSGAEVKKPGESLKISCQGSGYSFRSYWIGWVRQKPGKGLEYMGIIFPNDFDTRYSPSFQGQVTISVDKSTSTAFLQWTSLQASDTAIYYCGRQELQGSFTIWGQGTMVTVTS VL: DIVMTQSPSSLSASVGDRVTITCQASQDMGNSLNWYQQKSGKAPKLLIYDASYLDSGVPSRFSGSGSGTHFTFTISTLQPEDIATYYCQHYDNLLLFTFGPGTKLEIK: 0.006 µg/mL

Now, please, on to the next binder.
Input ADI-14515 (antibody, V domains shown) VH: QVQLVQSGGGVVQPGSSLRLSCSASGFTFMTYGMHWARQAPGKGLEWVADISFDANKKYYRDSVKGRFTISRDNSKNTVYLQMNSLRPEDTAVYFCARNTIFGVVDYWGQGTLVTVSS VL: EIVLTQSPATLSVSPGERATLSCRASQSVSANLAWYQHKPGQAPRLLIYGASTRASDIPARFSGSGSGTEFTLTISSLQSEDSAVYYCQQYNNWPPWTFGQGTKVEIK . Output Neut IC50 subtype A: 0.051 µg/mL
